# Test system: Nucleic Acid
# protocol_details: Stabilization of DNA duplex hairpin structure assessed as change in melting temperature at 1 uM by FRET assay
# Format: nucleic-acid assay
quantity_kind: ΔTm (°C)

CN(C)c1ccc(C=c2c3ccccc3n3c2cc(-c2ccc(Cl)cc2)[n+]3C)cc1 = 0.3

I. O=C(Nc1ccc(C2=NCCCN2)cc1)Nc1ccc(C2=NCCCN2)cc1
II. COc1cc(Cc2nccc3cc(OC)c(OC)cc23)c(C(C)=O)cc1OC
III. COc1ccc2c(=O)oc3c(OC)cc(CCN(C)C)c4c(=O)oc1c2c34
IV. CN(C)c1ccc(Nc2c3ccc(NC(=O)CCN4CCCC4)cc3nc3cc(NC(=O)CCN4CCCC4)ccc23)cc1
Request: Place the items in sequence of falling ΔTm. The response must list the labels following the requested ordering.
Response: IV, I, III, II
